tested on: LOX IMVI; assay: NCI tumour cell line growth inhibition, 48 h
The source made the active and inactive calls. Cut-off read from the data, not from the text of the source: active = GI50 up to about 1.1 µM and inactive = higher.
Please reply with one of these outcomes: active, inactive

Below are worked cases with known answers.
Compound	Class label
NS(=O)(=O)c1ccc(NC2(C(=O)O)CCCC2)cc1	inactive
COc1ccc(/C(=N/O)C(c2ccc(OC)cc2)C2C(=O)Oc3ccccc32)cc1 (centres undefined)	inactive

Task: Recorded call for `Cc1cc(S(=O)(=O)N2CCNNC2=O)c(S)cc1Cl` ?
Output: inactive

Task: Hi team, can someone confirm the assay call for `O=C(Nc1cc2c(=O)oc3ccccc3c2oc1=O)c1cccnc1` ?
Output: inactive

Task: Given `COC(=O)C(=NNc1ccccc1[N+](=O)[O-])C(=O)OC` , state the outcome it received in this test.
Output: inactive

Task: Would you mind telling me which call this test gave `Cc1cccc(/N=N/c2ccc(O)c(CN(C)C)c2)c1` ?
Output: inactive

Task: Entry `Cn1cnc(N2CCCC2)c(C#N)c1=S` : call = ?
Output: inactive

Task: Kindly provide the recorded test outcome for the following compound: `Oc1ccc(CNCc2ccccc2)c2cccnc12`
Output: active

Task: # fetch the recorded call for `O=[N+]([O-])/C=C/c1cc2ccc3ccccc3c2[nH]1` here
Output: inactive

Task: Can you look up the reported call for `CC(C)(C)c1cc(C(C)(C)C)c2c(c1O)OC(=O)CS2` for me?
Output: inactive
